Cited source for all entries: paper PMC12481576

# subject of test: LbDHODH (Leishmania braziliensis, UniProt E9AI53)
# Sequence (E9AI53 entry or part of it): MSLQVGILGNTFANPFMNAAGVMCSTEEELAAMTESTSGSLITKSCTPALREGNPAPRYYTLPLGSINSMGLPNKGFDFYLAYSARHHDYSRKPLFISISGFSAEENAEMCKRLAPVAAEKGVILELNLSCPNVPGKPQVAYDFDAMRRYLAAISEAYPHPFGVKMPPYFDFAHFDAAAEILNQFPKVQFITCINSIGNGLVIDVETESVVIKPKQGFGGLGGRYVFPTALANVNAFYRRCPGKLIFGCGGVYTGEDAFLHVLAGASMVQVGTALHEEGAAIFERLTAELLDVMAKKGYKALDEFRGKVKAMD
# assay info: biochemical
# particulars: 0 h, pH 8.15, read-out: LbDHODH Activity±SD (%)
Rule: activity at 12.5 µM below 40% gives T, anything at or above gives F.

* O=C1NC(=O)C(=Cc2ccc(C(=O)O)cc2)C(=O)N1 [2b] | F
* COc1cc(C=C2C(=O)NC(=O)NC2=O)ccc1O [2c] | T
* O=C1NC(=O)C(=Cc2ccc(N3CCOCC3)cc2[N+](=O)[O-])C(=O)N1 [2e] | T
* O=C1NC(=O)C(=Cc2ccccc2)C(=O)N1 [2a] | F
* O=C1NC(=O)C(=C/C=C/c2ccccc2)C(=O)N1 [2i] | T
* O=C1NC(=O)C(=Cc2cccc(O)c2)C(=O)N1 [2g] | F
* O=C1NC(=O)C(=Cc2ccc(O)c([N+](=O)[O-])c2)C(=O)N1 [2d] | T
* O=C1NC(=O)C(=Cc2ccc(-c3ccccc3)cc2)C(=O)N1 [2f] | F
